target: PmSiaT (Proteus mirabilis, UniProt B4EZY7); construct: made in house; test: nanoDSF thermal shift assay, PmSiaT; type: binding; settings: PmSiaT Tm, average of experiment 3

Molecule	Average 3
CC(=O)N[C@H]1[C@H]([C@H](O)[C@H](O)CO)OC(O)(C(=O)O)C[C@@H]1O (stereo partly drawn) [Neu5Ac, 5-N-acetyl neuraminic acid, reference compound]	49.3 °C
O=C(CO)N[C@H]1[C@H]([C@H](O)[C@H](O)CO)OC(O)(C(=O)O)C[C@@H]1O (stereo partly drawn) [Neu5Gc, 5-N-glycolyl neuraminic acid, reference compound]	48.0 °C
CC(=O)NC1C(OCc2cc(Br)cc(Br)c2)CC(O)(C(=O)O)OC1C(O)C(O)CO (stereo not drawn)	63.7 °C
CSCC(O)C(O)C1OC(O)(C(=O)O)CC(O)C1NC(C)=O (stereo not drawn)	46.1 °C
[N-]=[N+]=NCC(=O)N[C@H]1[C@H]([C@H](O)[C@H](O)CO)O[C@@](O)(C(=O)O)C[C@@H]1O [Compound 6h, reference compound]	49.1 °C
O=C(Cc1ccccc1)NC1C(O)CC(O)(C(=O)O)OC1C(O)C(O)CO (stereo not drawn)	46.0 °C
CC(=O)NC1C(OCc2ccc(F)cc2)CC(O)(C(=O)O)OC1C(O)C(O)CO (stereo not drawn)	53.1 °C
CC(=O)NC1C(OCc2ccc(Br)cc2)CC(O)(C(=O)O)OC1C(O)C(O)CO (stereo not drawn)	56.0 °C
CCC(=O)NC1C(O)CC(O)(C(=O)O)OC1C(O)C(O)CO (stereo not drawn)	46.7 °C

====

target: SaSiaT (Staphylococcus aureus); assay: nanoDSF thermal shift assay, SaSiaT; type: binding; settings: SaSiaT Tm, experiment 2, second capillary, 1.25 mM
Sequence (A0A0H2XJ46 entry or part of it): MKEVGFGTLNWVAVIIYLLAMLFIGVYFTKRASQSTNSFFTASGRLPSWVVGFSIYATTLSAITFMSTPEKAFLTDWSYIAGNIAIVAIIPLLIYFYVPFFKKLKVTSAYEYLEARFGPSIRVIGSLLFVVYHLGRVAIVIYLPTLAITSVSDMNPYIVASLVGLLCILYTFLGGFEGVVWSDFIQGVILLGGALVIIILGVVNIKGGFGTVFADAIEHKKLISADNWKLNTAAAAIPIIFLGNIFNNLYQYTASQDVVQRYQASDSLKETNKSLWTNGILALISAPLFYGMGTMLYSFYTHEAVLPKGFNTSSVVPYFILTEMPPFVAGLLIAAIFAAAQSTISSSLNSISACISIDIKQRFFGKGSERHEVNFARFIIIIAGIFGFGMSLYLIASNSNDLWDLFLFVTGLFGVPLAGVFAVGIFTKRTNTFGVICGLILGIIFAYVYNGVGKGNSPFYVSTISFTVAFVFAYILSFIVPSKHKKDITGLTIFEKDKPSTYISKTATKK
Parameter: Replicate 2. Scope: all listed entries.

Compound	Measurement Target	Replicate 2 [°C]
CC(=O)NC1C(O)CC(O)(C(=O)O)OC1C(O)C(O)CCl (stereo not drawn)	SaSiaT (Staphylococcus aureus)	49.6
CC(=O)NC1C(O)CC(O)(C(=O)O)OC1C(O)C(O)CBr (stereo not drawn)	SaSiaT (Staphylococcus aureus)	49.9
CC(=O)N[C@H]1[C@H]([C@H](O)[C@H](O)CO)OC(O)(C(=O)O)C[C@@H]1O (stereo partly drawn) [Neu5Ac, 5-N-acetyl neuraminic acid, reference compound]	SaSiaT (Staphylococcus aureus)	51.4
CSCC(O)C(O)C1OC(O)(C(=O)O)CC(O)C1NC(C)=O (stereo not drawn)	SaSiaT (Staphylococcus aureus)	49.2
CC(=O)NC1C(O)CC(O)(C(=O)O)OC1C(O)C(O)CI (stereo not drawn)	SaSiaT (Staphylococcus aureus)	48.9
O=C(CF)NC1C(O)CC(O)(C(=O)O)OC1C(O)C(O)CO (stereo not drawn)	SaSiaT (Staphylococcus aureus)	51.2
O=C(Cc1ccccc1)NC1C(O)CC(O)(C(=O)O)OC1C(O)C(O)CO (stereo not drawn)	SaSiaT (Staphylococcus aureus)	51.1
CCSCC(O)C(O)C1OC(O)(C(=O)O)CC(O)C1NC(C)=O (stereo not drawn)	SaSiaT (Staphylococcus aureus)	48.7
O=C(CCl)NC1C(O)CC(O)(C(=O)O)OC1C(O)C(O)CO (stereo not drawn)	SaSiaT (Staphylococcus aureus)	49.0

====

biological target: PmSiaT (Proteus mirabilis, UniProt B4EZY7); construct: made in house; experiment: nanoDSF thermal shift assay, PmSiaT; assay type: binding; settings: PmSiaT, experiment 1, vs Neu5Ac; read-out: ΔTm 1
Rule: ΔTm below -2 °C gives fulfilled, anything at or above gives not fulfilled.

Compound	Answer Label
CCSCC(O)C(O)C1OC(O)(C(=O)O)CC(O)C1NC(C)=O (stereo not drawn) [Compound 8b]	fulfilled
CC(=O)NC1C(O)CC(O)(C(=O)O)OC1C(O)C(O)CCl (stereo not drawn) [Compound 8c]	not fulfilled
CC(C)(C)C(=O)NC1C(O)CC(O)(C(=O)O)OC1C(O)C(O)CO (stereo not drawn) [Compound 6c]	fulfilled
CC(=O)NC1C(OCc2cc(F)cc(F)c2)CC(O)(C(=O)O)OC1C(O)C(O)CO (stereo not drawn) [Compound 3e]	not fulfilled
CCC(=O)NC1C(O)CC(O)(C(=O)O)OC1C(O)C(O)CO (stereo not drawn) [Compound 6a]	fulfilled
O=C(NC1C(O)CC(O)(C(=O)O)OC1C(O)C(O)CO)c1ccccc1 (stereo not drawn) [Compound 6d]	fulfilled
CC(=O)NC1C(OCc2ccccc2)CC(O)(C(=O)O)OC1C(O)C(O)CO (stereo not drawn) [Compound 3a]	not fulfilled
CC(=O)NC1C(OCc2ccc(Br)cc2)CC(O)(C(=O)O)OC1C(O)C(O)CO (stereo not drawn) [Compound 3c]	not fulfilled
O=C(CCl)NC1C(O)CC(O)(C(=O)O)OC1C(O)C(O)CO (stereo not drawn) [Compound 6g]	not fulfilled

====

target: SaSiaT (Staphylococcus aureus); assay: nanoDSF thermal shift assay, SaSiaT; format: binding; details: SaSiaT Tm, experiment 1, second capillary, 1.25 mM
# key: entry, value: Replicate 1
Measure: Replicate 1 (°C)

Compound	Measurement Target	Unit Of Measure	Measurement
CC(=O)NC1C(OCc2cc(Br)cc(Br)c2)CC(O)(C(=O)O)OC1C(O)C(O)CO (stereo not drawn) [Compound 3f]	SaSiaT (Staphylococcus aureus)	°C	53.1
CC(=O)NC1C(O)CC(O)(C(=O)O)OC1C(O)C(O)CBr (stereo not drawn) [Compound 8d]	SaSiaT (Staphylococcus aureus)	°C	49.8
CC(=O)N[C@H]1[C@H]([C@H](O)[C@H](O)CO)OC(O)(C(=O)O)C[C@@H]1O (stereo partly drawn) [Neu5Ac, 5-N-acetyl neuraminic acid, reference compound]	SaSiaT (Staphylococcus aureus)	°C	51.4
O=C(CCl)NC1C(O)CC(O)(C(=O)O)OC1C(O)C(O)CO (stereo not drawn) [Compound 6g]	SaSiaT (Staphylococcus aureus)	°C	49.0
O=C(CF)NC1C(O)CC(O)(C(=O)O)OC1C(O)C(O)CO (stereo not drawn) [Compound 6f]	SaSiaT (Staphylococcus aureus)	°C	52.0
CC(=O)N[C@H]1[C@H]([C@H](O)[C@H](O)CO)OC(C(=O)O)=C[C@@H]1O [Compound 9, reference compound]	SaSiaT (Staphylococcus aureus)	°C	45.2
O=C(CO)N[C@H]1[C@H]([C@H](O)[C@H](O)CO)OC(O)(C(=O)O)C[C@@H]1O (stereo partly drawn) [Neu5Gc, 5-N-glycolyl neuraminic acid, reference compound]	SaSiaT (Staphylococcus aureus)	°C	53.3
CCSCC(O)C(O)C1OC(O)(C(=O)O)CC(O)C1NC(C)=O (stereo not drawn) [Compound 8b]	SaSiaT (Staphylococcus aureus)	°C	49.9
CC(=O)NC1C(O)CC(O)(C(=O)O)OC1C(O)C(O)CCl (stereo not drawn) [Compound 8c]	SaSiaT (Staphylococcus aureus)	°C	48.9

====

Attribute: Replicate 3
biological target: PmSiaT (Proteus mirabilis, UniProt B4EZY7); construct: made in house; assay: nanoDSF thermal shift assay, PmSiaT; type: binding; conditions: PmSiaT Tm, experiment 3, second capillary, 1.25 mM
Measure: Replicate 3

Compound	Measurement
[N-]=[N+]=NCC(=O)N[C@H]1[C@H]([C@H](O)[C@H](O)CO)O[C@@](O)(C(=O)O)C[C@@H]1O [Compound 6h, reference compound]	49.3 °C
O=C(CCl)NC1C(O)CC(O)(C(=O)O)OC1C(O)C(O)CO (stereo not drawn)	49.5 °C
CC(=O)N[C@H]1[C@H]([C@H](O)[C@H](O)CO)OC(O)(C(=O)O)C[C@@H]1O (stereo partly drawn) [Neu5Ac, 5-N-acetyl neuraminic acid, reference compound]	49.3 °C

====

Molecular target: PmSiaT (Proteus mirabilis, UniProt B4EZY7)
Construct: made in house
Sequence (B4EZY7 1-496): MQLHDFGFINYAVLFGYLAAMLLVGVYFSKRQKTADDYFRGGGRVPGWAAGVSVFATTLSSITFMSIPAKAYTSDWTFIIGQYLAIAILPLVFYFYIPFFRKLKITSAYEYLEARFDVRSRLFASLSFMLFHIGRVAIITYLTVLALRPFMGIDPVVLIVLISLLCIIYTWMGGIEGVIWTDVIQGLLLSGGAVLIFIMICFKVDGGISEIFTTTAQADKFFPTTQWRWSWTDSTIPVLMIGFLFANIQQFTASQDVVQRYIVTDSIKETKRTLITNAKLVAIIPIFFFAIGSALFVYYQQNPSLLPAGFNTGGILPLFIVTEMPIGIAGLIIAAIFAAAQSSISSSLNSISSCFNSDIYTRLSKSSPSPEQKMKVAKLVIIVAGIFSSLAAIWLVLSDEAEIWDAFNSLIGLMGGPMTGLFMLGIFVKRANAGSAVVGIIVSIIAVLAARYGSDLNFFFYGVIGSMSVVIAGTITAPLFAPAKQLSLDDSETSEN
Experiment: nanoDSF thermal shift assay, PmSiaT
Assay type: binding
Conditions: PmSiaT, experiment 3, vs Neu5Ac; read-out: ΔTm 3

Compound	ΔTm [°C]
CC(=O)N[C@H]1[C@H]([C@H](O)[C@H](O)CO)OC(O)(C(=O)O)C[C@@H]1O (stereo partly drawn) [Neu5Ac, 5-N-acetyl neuraminic acid, reference compound]	0
CCC(=O)NC1C(O)CC(O)(C(=O)O)OC1C(O)C(O)CO (stereo not drawn)	-2.6
CC(=O)NC1C(OCc2ccc(Br)cc2)CC(O)(C(=O)O)OC1C(O)C(O)CO (stereo not drawn)	6.7
CC(=O)NC1C(O)CC(O)(C(=O)O)OC1C(O)C(O)CI (stereo not drawn)	-2
CSCC(O)C(O)C1OC(O)(C(=O)O)CC(O)C1NC(C)=O (stereo not drawn)	-3.2
O=C(CCl)NC1C(O)CC(O)(C(=O)O)OC1C(O)C(O)CO (stereo not drawn)	0.2
CC(C)(C)C(=O)NC1C(O)CC(O)(C(=O)O)OC1C(O)C(O)CO (stereo not drawn)	-2.6
O=C(NC1C(O)CC(O)(C(=O)O)OC1C(O)C(O)CO)c1ccccc1 (stereo not drawn)	-3.6
CCSCC(O)C(O)C1OC(O)(C(=O)O)CC(O)C1NC(C)=O (stereo not drawn)	-3.2
CC(=O)NC1C(O)CC(O)(C(=O)O)OC1C(O)C(O)CBr (stereo not drawn)	-2.1
CC(=O)NC1C(OCc2ccc(C#N)cc2)CC(O)(C(=O)O)OC1C(O)C(O)CO (stereo not drawn)	4.8
CC(C)C(=O)NC1C(O)CC(O)(C(=O)O)OC1C(O)C(O)CO (stereo not drawn)	-2.3
